test: chemical genetic growth profiling, strain panel (AID 1159580);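 note: tested at 20 µM; growth read once vehicle control cultures reached saturation at 30 °C; 1 = growth at the plate median or of vehicle wells; lower values mean less growth of the strain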; conditions: S. cerevisiae deletion strains, growth OD, locus YJL168C, strain set2, hits give low values
About 2,000 (36%) of roughly 5,500 compounds were called active. Roughly 18% stayed inconclusive and do not appear here. The list shows a part of the results.
The compounds listed here are annotated with their normalized growth.

{"columns": ["COMPOUND", "normalized growth"],
 "data": [
  ["COC(=O)/C(C)=C\\CC12OC(C)(C)C3CC(C=C4C(=O)c5c(O)c6c(c(CCC(C)(C)Cl)c5OC431)OC1(C)CCC(=C(C)C)C6C1)C2=O (stereo not drawn)", 1.01],
  ["O=c1oc2cc(O)ccc2s1", 0.961],
  ["CC(C)=CCCC1(C)C=Cc2c(O)c3c(c(CC=C(C)C)c2O1)OC12C(=CCCC1C(C)(C)O[C@@]2(C/C=C(\\C)C(=O)O)C(=O)O)C3=O (stereo partly drawn)", 0.971],
  ["CC1(C)CC[C@]2(C(=O)O)CC[C@]3(C)C(=CCC4[C@@]5(C)CC[C@@H](O)C(C)(C)C5CC[C@]43C)C2C1 (stereo partly drawn)", 1.02],
  ["C/C=C(/C)C(=O)O[C@H]1CC[C@@]2(C)[C@@H]3CC[C@H]4[C@]5(O)C[C@H](O)[C@@]6(O)[C@@H](CN7C[C@@H](C)CC[C@H]7[C@@]6(C)O)[C@]5(O)C[C@@]42O[C@]13O", 0.982],
  ["C/C=C1\\[C@H]2C=C(C)C[C@]1(N)c1ccc(=O)[nH]c1C2", 1.01],
  ["OC(CCN1CCCC1)(c1ccccc1)C1CCCCC1 (stereo not drawn)", 0.974],
  ["CC(C)=CCCC1(C)C=Cc2c(O)c3c(c(CC=C(C)C)c2O1)OC12C(=CC4CC1C(C)(C)OC2(C/C=C(\\C)C(N)=O)C4=O)C3=O (stereo not drawn)", 0.987]
]}

====

test: chemical genetic growth profiling, strain panel (AID 1159580);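 note: tested at 20 µM; growth read once vehicle control cultures reached saturation at 30 °C; 1 = growth at the plate median or of vehicle wells; lower values mean less growth of the strain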; conditions: S. cerevisiae deletion strains, growth OD, locus YPR119W, strain clb2, hits give low values
Screen size: about 5,500 compounds; about 2,000 (36%) were called active. Inconclusive results (about 18%) are left out. This is one part of the list.
MEASURED PROPERTY: normalized growth

{"columns": ["MOLECULE", "ASSAY RESULT"],
 "data": [
  ["C#C[C@]1(OC(C)=O)CCC2C3CCC4=CC(=O)CC[C@@H]4C3CC[C@@]21C (stereo partly specified)", 0.972],
  ["OC(CCN1CCCC1)(c1ccccc1)C1CCCCC1 (stereo unspecified)", 0.981],
  ["CNC(=O)O/N=C\\C(C)(C)SC", 0.986],
  ["N[C@H](C(=O)O)[C@@H]1CC(Cl)=NO1", 0.335],
  ["C[C@@H]1CC[C@]2(C(=O)O)CC[C@]3(C)C(=CCC4[C@@]5(C)CC[C@H](O)C(C)(C)C5CC[C@]43C)C2[C@H]1C (stereo partly specified)", 1],
  ["CC(C)=CCCC1(C)C=Cc2c(O)c3c(c(CC=C(C)C)c2O1)OC12C(=CCCC1C(C)(C)O[C@@]2(C/C=C(\\C)C(=O)O)C(=O)O)C3=O (stereo partly specified)", 0.956],
  ["COC(=O)C[C@H]1C(C)(C)C2(O)OC34CC2C(=O)[C@]1(C)C3CC[C@]1(C)C4=CC(=O)O[C@H]1c1ccoc1 (stereo partly specified)", 1.01],
  ["C#C[C@]1(O)CCC2C3CCC4=CC(=O)CC[C@@H]4C3CC[C@@]21CC (stereo partly specified)", 1],
  ["CC1(C)CC[C@@]2(C(=O)O)C(C1)C1=CCC3[C@@]4(C)CC[C@H](O)C(C)(C)C4CC[C@@]3(C)[C@]1(C)C[C@@H]2O (stereo partly specified)", 1.03],
  ["CC(=O)/C=C\\[C@@H]1[C@@]2(C)CCCC(C)(C)C2CC[C@@]1(C)O (stereo partly specified)", 0.985],
  ["CNCc1ccccc1", 0.991],
  ["C/C=C(/C)C(=O)O[C@@H]1[C@H](OC(C)=O)[C@@]2(CO)C(CC1(C)C)C1=CCC3[C@@]4(C)CC[C@H](O[C@@H]5O[C@H](C(=O)O)[C@@H](O[C@@H]6O[C@H](CO)[C@@H](O)[C@H](O)[C@H]6O)[C@H](O)[C@H]5O[C@@H]5O[C@H](CO)[C@@H](O)[C@H](O)[C@H]5O)[C@](C)(CO)C4CC[C@@]3(C)[C@]1(C)C[C@H]2O (stereo partly specified)", 1.03],
  ["C[C@H]1[C@H](C)CC[C@]2(CO)CC[C@]3(C)C(=CCC4[C@@]5(C)CC[C@H](O)C(C)(C)C5CC[C@]43C)[C@H]12 (stereo partly specified)", 1.03],
  ["COc1ccc2c(c1)c(CC(=O)O)c(C)n2C(=O)c1ccc(Cl)cc1", 0.98],
  ["O=C(COc1ccc(Cl)cc1)N1CCN(Cc2ccc3c(c2)OCO3)CC1", 0.989],
  ["COC(=O)C[C@H]1C(C)(C)C(=O)[C@@H]2CC3C4=CC(=O)O[C@@H](c5ccoc5)[C@]4(C)CCC3[C@@]1(C)C2=O (stereo partly specified)", 0.99]
]}
